Taken from ChEMBL document CHEMBL3588848.

studySystem: Melanin-concentrating hormone receptor 1 (Rattus norvegicus, UniProt P97639)
Sequence (P97639 whole entry): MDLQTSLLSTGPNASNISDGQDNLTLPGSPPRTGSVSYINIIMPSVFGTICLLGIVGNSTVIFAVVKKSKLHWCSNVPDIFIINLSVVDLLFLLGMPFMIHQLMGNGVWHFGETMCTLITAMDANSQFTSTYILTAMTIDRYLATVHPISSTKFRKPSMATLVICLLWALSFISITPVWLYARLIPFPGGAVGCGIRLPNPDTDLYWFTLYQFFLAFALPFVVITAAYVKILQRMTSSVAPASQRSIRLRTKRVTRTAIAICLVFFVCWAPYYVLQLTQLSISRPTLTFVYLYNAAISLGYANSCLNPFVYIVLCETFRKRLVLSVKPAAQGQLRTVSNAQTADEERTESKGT
procedureText: Antagonist activity at rat MCHR1
attributeMeasured: Ki
Note: a bare number is incomplete; add the unit.

Prompt: // lookup Ki for CN[C@H]1CCN(c2ccc(N3Cc4cn(-c5ccc(Cl)cc5)nc4C3=O)cn2)C1
Response: 0.8 nM

====

Below, each entry is listed alongside its reported inhibition at 1 µM.
studySystem: hERG (KCNH2) (Homo sapiens, UniProt Q12809)
Sequence (Q12809 whole entry): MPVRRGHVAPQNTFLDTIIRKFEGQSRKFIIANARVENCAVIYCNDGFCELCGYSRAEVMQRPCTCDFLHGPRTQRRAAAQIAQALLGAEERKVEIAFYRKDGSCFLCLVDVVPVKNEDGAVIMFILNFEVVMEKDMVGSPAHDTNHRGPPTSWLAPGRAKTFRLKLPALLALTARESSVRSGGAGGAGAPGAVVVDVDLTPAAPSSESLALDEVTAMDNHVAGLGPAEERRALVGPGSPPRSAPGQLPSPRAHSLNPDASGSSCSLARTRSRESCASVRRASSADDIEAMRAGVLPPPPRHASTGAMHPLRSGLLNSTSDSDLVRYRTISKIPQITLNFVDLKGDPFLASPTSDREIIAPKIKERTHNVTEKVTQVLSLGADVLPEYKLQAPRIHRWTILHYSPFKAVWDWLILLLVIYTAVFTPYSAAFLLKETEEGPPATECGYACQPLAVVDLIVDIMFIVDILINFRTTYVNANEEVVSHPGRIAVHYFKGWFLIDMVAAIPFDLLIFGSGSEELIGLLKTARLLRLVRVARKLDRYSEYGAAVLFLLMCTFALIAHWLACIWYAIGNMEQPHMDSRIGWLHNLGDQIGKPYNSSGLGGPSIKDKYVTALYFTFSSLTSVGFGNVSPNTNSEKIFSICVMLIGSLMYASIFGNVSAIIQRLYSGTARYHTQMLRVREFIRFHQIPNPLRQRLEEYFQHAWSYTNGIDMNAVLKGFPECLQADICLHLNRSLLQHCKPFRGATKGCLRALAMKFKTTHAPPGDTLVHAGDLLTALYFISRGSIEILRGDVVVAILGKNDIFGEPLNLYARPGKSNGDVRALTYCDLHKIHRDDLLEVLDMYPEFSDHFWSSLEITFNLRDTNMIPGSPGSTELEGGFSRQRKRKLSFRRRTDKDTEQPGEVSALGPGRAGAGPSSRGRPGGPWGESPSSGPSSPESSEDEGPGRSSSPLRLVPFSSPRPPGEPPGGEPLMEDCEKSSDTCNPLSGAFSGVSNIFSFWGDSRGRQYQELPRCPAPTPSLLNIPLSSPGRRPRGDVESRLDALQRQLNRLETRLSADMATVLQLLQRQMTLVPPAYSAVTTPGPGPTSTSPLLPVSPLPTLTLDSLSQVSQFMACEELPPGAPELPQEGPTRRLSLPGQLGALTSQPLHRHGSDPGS
procedureText: Inhibition of human ERG expressed in CHO cells at 1 uM by automated whole-cell patch clamp electrophysiology system relative to control
Format: cell-based
testParameters: CHO cells expressing human ERG
Quick note: give the figure in %, leave out the unit.

N[C@H]1CCN(c2ccc(N3Cc4cn(-c5ccc(Cl)cc5)nc4C3=O)cn2)C1 | 58

Prompt: // lookup inhibition at 1 µM for CN(C)[C@H]1CCN(c2ccc(N3Cc4cn(-c5ccc(Cl)cc5)nc4C3=O)cn2)C1
Response: 50

Prompt: // lookup inhibition at 1 µM for CC(=O)N(C)C1CCN(c2ccc(N3Cc4cn(-c5ccc(Cl)cc5)nc4C3=O)cn2)C1 (configuration not stated)
Response: 23

====

studySystem: hERG (KCNH2) (Homo sapiens, UniProt Q12809)
procedureText: Inhibition of human ERG expressed in CHO cells at 1 uM by automated whole-cell patch clamp electrophysiology system relative to control
Format: cell-based
testParameters: CHO cells expressing human ERG
attributeMeasured: inhibition at 1 µM (%)
Quick note: give the figure in %, leave out the unit.

CC(C)(C)NC1CCN(c2ccc(N3Cc4cn(-c5ccc(Cl)cc5)nc4C3=O)cn2)C1 (centres undefined) | 71
CN[C@@H]1CCN(c2ccc(N3Cc4cn(-c5ccc(Cl)cc5)nc4C3=O)cn2)C1 | 50

Prompt: // lookup inhibition at 1 µM for CN[C@H]1CCN(c2ccc(N3Cc4cn(-c5ccc(Cl)cc5)nc4C3=O)cn2)C1
Response: 66
